Kindly supply the reported Bliss interaction score values for the records listed here.
Test system: S. aureus DSM 20231
Assay: Bliss interaction score (quartile over a dose matrix) (fitness difference); higher = more antagonism (negative = synergy);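 further: first quartile when negative (synergy) and third quartile when positive (antagonism)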
Enter a number only.

# get_value(readout= Bliss interaction score, system= S. aureus DSM 20231) for CC(=O)Oc1ccccc1C(=O)O [Acetylsalicylicacid] + O=C1CN(/N=C/c2ccc([N+](=O)[O-])o2)C(=O)N1 [Nitrofurantoin]
-0.0978

# get_value(readout= Bliss interaction score, system= S. aureus DSM 20231) for O=C(O)c1cc(-c2ccc(F)cc2F)ccc1O [Diflunisal] + CC(=O)O[C@H]1C[C@@]2(C)[C@@H](C[C@@H](O)[C@H]3[C@@]4(C)CC[C@@H](O)[C@@H](C)[C@@H]4CC[C@@]32C)/C1=C(\CCC=C(C)C)C(=O)O
0.199

# get_value(readout= Bliss interaction score, system= S. aureus DSM 20231) for O=C(O)c1cn(C2CC2)c2cc(N3CCNCC3)c(F)cc2c1=O [Ciprofloxacin] + O=C1CN(/N=C/c2ccc([N+](=O)[O-])o2)C(=O)N1 [Nitrofurantoin]
0.0292

# get_value(readout= Bliss interaction score, system= S. aureus DSM 20231) for COCCOC(=O)C1=C(C)NC(C)=C(C(=O)OC/C=C/c2ccccc2)C1c1cccc([N+](=O)[O-])c1 (stereo not given) [Cilnidipine] + Cn1nnc(-c2ccc(-c3ccc(N4C[C@H](CO)OC4=O)cc3F)cn2)n1
-0.429

# get_value(readout= Bliss interaction score, system= S. aureus DSM 20231) for CC(=O)Oc1ccccc1C(=O)O [Acetylsalicylicacid] + Cn1nnc(-c2ccc(-c3ccc(N4C[C@H](CO)OC4=O)cc3F)cn2)n1 [Tedizolid]
-0.124

----------
Test system: B. subtilis 168
Assay: Bliss interaction score (quartile over a dose matrix) (fitness difference); higher = more antagonism (negative = synergy)
outcome.measure: Bliss interaction score
Enter a number only.

Which measured Bliss interaction score value corresponds to O=C(O)c1cn(C2CC2)c2cc(N3CCNCC3)c(F)cc2c1=O [Ciprofloxacin] + CN1C2=CC=CC=C2N=C3C1=CC=CC3=O [Pyocyanin] ?
0.104

Which measured Bliss interaction score value corresponds to COc1ccc(C[C@H](N)C(=O)N[C@H]2[C@@H](O)[C@H](n3cnc4c(N(C)C)ncnc43)O[C@@H]2CO)cc1 [Puromycin] + COc1cc(Cc2cnc(N)nc2N)cc(OC)c1OC [Trimethoprim] ?
0.0908

Which measured Bliss interaction score value corresponds to C[C@H]1c2cccc(O)c2C(=O)C2=C(O)[C@]3(O)C(=O)C(C(N)=O)=C(O)[C@@H](N(C)C)[C@@H]3[C@@H](O)[C@@H]21 [Doxycycline] + CN[C@@H]1[C@H](O[C@H]2[C@H](O[C@H]3[C@H](O)[C@@H](O)[C@H](N=C(N)N)[C@@H](O)[C@@H]3N=C(N)N)O[C@@H](C)[C@]2(O)C=O)O[C@@H](CO)[C@H](O)[C@H]1O [Streptomycin] ?
0.251

Which measured Bliss interaction score value corresponds to O=C(O)c1cn(C2CC2)c2cc(N3CCNCC3)c(F)cc2c1=O [Ciprofloxacin] + C/C(=C\C(=O)OCCCCCCCCC(=O)O)C[C@@H]1OC[C@H](C[C@@H]2O[C@H]2[C@@H](C)[C@H](C)O)[C@@H](O)[C@H]1O [Pseudomonic acid] ?
0.0413

Which measured Bliss interaction score value corresponds to COc1cccc2c1C(=O)c1c(O)c3c(c(O)c1C2=O)C[C@@](O)(C(=O)CO)C[C@@H]3O[C@H]1C[C@H](N)[C@H](O)[C@H](C)O1 [Doxorubicin] + CN(C)C(=O)C(CCN1CCC(O)(c2ccc(Cl)cc2)CC1)(c1ccccc1)c1ccccc1 [Loperamide] ?
-0.228

Which measured Bliss interaction score value corresponds to CC(=O)Oc1ccccc1C(=O)O [Acetylsalicylicacid] + O=C1CN(/N=C/c2ccc([N+](=O)[O-])o2)C(=O)N1 [Nitrofurantoin] ?
-0.202

Which measured Bliss interaction score value corresponds to CC(=O)Oc1ccccc1C(=O)O [Acetylsalicylicacid] + CC(=O)O[C@H]1C[C@@]2(C)[C@@H](C[C@@H](O)[C@H]3[C@@]4(C)CC[C@@H](O)[C@@H](C)[C@@H]4CC[C@@]32C)/C1=C(\CCC=C(C)C)C(=O)O [Fusidic acid] ?
-0.0821

----------
Tested on: S. aureus DSM 20231
Test: Bliss interaction score (quartile over a dose matrix) (fitness difference); higher = more antagonism (negative = synergy)
Kindly supply the reported Bliss interaction score values for the records listed here.
Enter a number only.

Which measured Bliss interaction score value corresponds to N#CC(C#N)=NNc1cccc(Cl)c1 [CCCP] + CN[C@@H]1[C@H](O[C@H]2[C@H](O[C@H]3[C@H](O)[C@@H](O)[C@H](N=C(N)N)[C@@H](O)[C@@H]3N=C(N)N)O[C@@H](C)[C@]2(O)C=O)O[C@@H](CO)[C@H](O)[C@H]1O [Streptomycin] ?
0.0501

Which measured Bliss interaction score value corresponds to COc1cccc2c1C(=O)c1c(O)c3c(c(O)c1C2=O)C[C@@](O)(C(=O)CO)C[C@@H]3O[C@H]1C[C@H](N)[C@H](O)[C@H](C)O1 [Doxorubicin] + CN(N=O)C(=O)N[C@@H](C=O)[C@@H](O)[C@H](O)[C@H](O)CO [Streptozotocin] ?
-0.0251

Which measured Bliss interaction score value corresponds to CO/N=C(\C(=O)N[C@@H]1C(=O)N2C(C(=O)O)=C(COC(N)=O)CS[C@H]12)c1ccco1 [Cefuroxime] + CC[C@H]1OC(=O)[C@H](C)C(=O)[C@H](C)[C@@H](O[C@@H]2O[C@H](C)C[C@H](N(C)C)[C@H]2O)[C@](C)(OC)C[C@@H](C)C(=O)[C@H](C)[C@H]2N(CCCCn3cnc(-c4cccnc4)c3)C(=O)O[C@]12C [Telithromycin] ?
-0.0813

Which measured Bliss interaction score value corresponds to CC(C)c1c(C(=O)Nc2ccccc2)c(-c2ccccc2)c(-c2ccc(F)cc2)n1CC[C@@H](O)C[C@@H](O)CC(=O)O [Atorvastatin] + CO/N=C(\C(=O)N[C@@H]1C(=O)N2C(C(=O)O)=C(COC(C)=O)CS[C@H]12)c1csc(N)n1 [Cefotaxime] ?
-0.17

Which measured Bliss interaction score value corresponds to O=C(O)c1cn(C2CC2)c2cc(N3CCNCC3)c(F)cc2c1=O [Ciprofloxacin] + CN(C)c1cc(NC(=O)CNC(C)(C)C)c(O)c2c1C[C@H]1C[C@H]3[C@H](N(C)C)C(O)=C(C(N)=O)C(=O)[C@@]3(O)C(O)=C1C2=O [Tigecycline] ?
0.0365

Which measured Bliss interaction score value corresponds to COc1cccc2c1C(=O)c1c(O)c3c(c(O)c1C2=O)C[C@@](O)(C(=O)CO)C[C@@H]3O[C@H]1C[C@H](N)[C@H](O)[C@H](C)O1 [Doxorubicin] + CN[C@@H]1[C@H](O[C@H]2[C@H](O[C@H]3[C@H](O)[C@@H](O)[C@H](N=C(N)N)[C@@H](O)[C@@H]3N=C(N)N)O[C@@H](C)[C@]2(O)C=O)O[C@@H](CO)[C@H](O)[C@H]1O [Streptomycin] ?
-0.0832

Which measured Bliss interaction score value corresponds to C[C@H]1c2cccc(O)c2C(=O)C2=C(O)[C@]3(O)C(=O)C(C(N)=O)=C(O)[C@@H](N(C)C)[C@@H]3[C@@H](O)[C@@H]21 [Doxycycline] + CN1C2=CC=CC=C2N=C3C1=CC=CC3=O [Pyocyanin] ?
0.0677

Which measured Bliss interaction score value corresponds to O=C(O)c1cn(C2CC2)c2cc(N3CCNCC3)c(F)cc2c1=O [Ciprofloxacin] + Cc1ncc([N+](=O)[O-])n1CCO [Metronidazole] ?
0.0471

----------
System: S. aureus DSM 20231
Experiment: Bliss interaction score (quartile over a dose matrix) (fitness difference); higher = more antagonism (negative = synergy)
outcome.measure: Bliss interaction score
Enter a number only.

Which measured Bliss interaction score value corresponds to CO/N=C(\C(=O)N[C@@H]1C(=O)N2C(C(=O)O)=C(COC(N)=O)CS[C@H]12)c1ccco1 [Cefuroxime] + COc1ccc(C[C@H](N)C(=O)N[C@H]2[C@@H](O)[C@H](n3cnc4c(N(C)C)ncnc43)O[C@@H]2CO)cc1 [Puromycin] ?
0.127

Which measured Bliss interaction score value corresponds to O=C(O)c1cn(C2CC2)c2cc(N3CCNCC3)c(F)cc2c1=O [Ciprofloxacin] + COc1cccc2c1C(=O)c1c(O)c3c(c(O)c1C2=O)C[C@@](O)(C(=O)CO)C[C@@H]3O[C@H]1C[C@H](N)[C@H](O)[C@H](C)O1 [Doxorubicin] ?
0.154

Which measured Bliss interaction score value corresponds to C[C@H]1c2cccc(O)c2C(=O)C2=C(O)[C@]3(O)C(=O)C(C(N)=O)=C(O)[C@@H](N(C)C)[C@@H]3[C@@H](O)[C@@H]21 [Doxycycline] + Cc1ncc([N+](=O)[O-])n1CCO [Metronidazole] ?
0.0684

Which measured Bliss interaction score value corresponds to Cc1ncc([N+](=O)[O-])n1CCO [Metronidazole] + CN[C@@H]1[C@H](O[C@H]2[C@H](O[C@H]3[C@H](O)[C@@H](O)[C@H](N=C(N)N)[C@@H](O)[C@@H]3N=C(N)N)O[C@@H](C)[C@]2(O)C=O)O[C@@H](CO)[C@H](O)[C@H]1O [Streptomycin] ?
0.0693

Which measured Bliss interaction score value corresponds to COc1cccc2c1C(=O)c1c(O)c3c(c(O)c1C2=O)C[C@@](O)(C(=O)CO)C[C@@H]3O[C@H]1C[C@H](N)[C@H](O)[C@H](C)O1 [Doxorubicin] + CC1=C\[C@@H](O)CC(=O)Cc2nc(co2)C(=O)N2CCC=C2C(=O)O[C@H](C(C)C)[C@H](C)/C=C/C(=O)NC\C=C\1 [Virginiamycin M1] ?
-0.0467

Which measured Bliss interaction score value corresponds to CN(C)[C@@H]1C(O)=C(C(N)=O)C(=O)[C@@]2(O)C(O)=C3C(=O)c4c(O)ccc(Cl)c4[C@@](C)(O)[C@H]3C[C@@H]12 [Clortetracycline] + Cc1cc(NS(=O)(=O)c2ccc(N)cc2)no1 [Sulfamethoxazol] ?
-0.058

Which measured Bliss interaction score value corresponds to CO/N=C(\C(=O)N[C@@H]1C(=O)N2C(C(=O)O)=C(COC(N)=O)CS[C@H]12)c1ccco1 [Cefuroxime] + Cc1ncc([N+](=O)[O-])n1CCO [Metronidazole] ?
0.132

Which measured Bliss interaction score value corresponds to C[C@H]1c2cccc(O)c2C(=O)C2=C(O)[C@]3(O)C(=O)C(C(N)=O)=C(O)[C@@H](N(C)C)[C@@H]3[C@@H](O)[C@@H]21 [Doxycycline] + Cc1cc(NS(=O)(=O)c2ccc(N)cc2)no1 [Sulfamethoxazol] ?
-0.0457
